Reference source for all entries: patent US10597405B2

# experimental-target: KRasG12C (Homo sapiens, UniProt P01116, G12C)
# Construct: biotin (biotinylated); made in house
# experiment-summary: KRasG12C Mass Spectrometry adducting assay
# Assay type: binding
# experimental-context: 10 μM test compound, 4 μM KRasG12C, 4 hours reaction; single experiment or average of two or more
reported-endpoint: KRasG12C M.S. Binding Mean adduct % (%)

molecule | KRasG12C M.S. Binding Mean adduct % [%]
C=CC(=O)N1CCN2c3c(cnc4c(F)c(-c5c(O)cccc5F)c(Cl)cc34)N(C)C(=O)C2C1 (single isomer, unassigned) [Example 19] | 3

[a] C=CC(=O)N1CCN2c3c(cnc4cc(-c5c(O)cccc5F)c(Cl)cc34)N(C)C[C@H]2C1
[b] C=CC(=O)N1CCN2c3c(cnc4c(F)c(-c5c(O)cccc5F)c(Cl)cc34)N(C)C(=O)C2C1 (single isomer, unassigned) [Example 18]
Request: Thinking about recorded KRasG12C M.S. Binding Mean adduct % values, which is higher, a or b ? Answer = label.
Response: a

###

# experimental-target: KRasG12C (Homo sapiens, UniProt P01116, G12C)
# Construct: biotin (biotinylated); made in house
# experiment-summary: KRasG12C Mass Spectrometry adducting assay
# Format: binding
# experimental-context: 10 μM test compound, 4 μM KRasG12C, 4 hours reaction; single experiment or average of two or more
# Method: KRasG12C Mass Spectrometry Adducting Assay Enzyme solutions were prepared in assay buffer containing 20 mM HEPES (pH 7.5), 5 mM MgCl2, and 150 mM NaCl. […] The plate was sealed before reading on a Xevo G2 QTOF (Waters) and Acquity LC system (Waters). […] Data was analysed in Mass Lynx software (Waters), the Total ion count (TIC) trace was used and the eluted protein peak data combined. […]
reported-endpoint: KRasG12C M.S. Binding Mean adduct % (%)

Reference set, count: 2
molecule | val
C=CC(=O)N1CCN2c3c(cnc4c(F)c(-c5c(C)ccc6[nH]cnc56)c(Cl)cc34)OC[C@H]2C1 (single isomer, unassigned) [Compound 77] | 60
C=CC(=O)N1CCN2c3c(cnc4c(F)c(-c5c(C)ccc6[nH]ncc56)c(Cl)cc34)N(C)C(=O)[C@H]2C1 (single isomer, unassigned) [Compound 49] | 95

[A] CN(C)C/C=C/C(=O)N1CCN2c3c(cnc4cc(-c5c(O)cccc5F)c(Cl)cc34)OC[C@H]2C1 [Example 9]
[B] C=CC(=O)N1CCN2c3c(cnc4cc(-c5c(C)ccc6[nH]c(=O)n(C)c56)c(Cl)cc34)OC[C@H]2C1 (single isomer, unassigned) [Compound 68]
Request: Lab log: flag the item ( A or B ) with the smaller KRasG12C M.S. Binding Mean adduct % figure. Output the label that corresponds to your choice.
Response: B

###

Quick list: half-life per entry.
# experiment-summary: Reactivity to glutathione (co-incubation with glutathione in buffer)
Express it in h; write the number only.

compound | display-unit | half-life
C=CC(=O)N1CCN2c3c(cnc4c(F)c(-c5c(O)cccc5F)c(Cl)cc34)N(C)C(=O)[C@H]2C1 (single isomer, unassigned) | h | 9.75

Request: Give me measured half-life, please, for this compound: C=CC(=O)N1C[C@@H]2C(=O)N(C)c3cnc4c(F)c(-c5c(O)cccc5F)c(Cl)cc4c3N2C[C@H]1C (single isomer, unassigned)
Response: 15.5
